assay_method_text: MRT (0 to infinity) in Kunming mouse at 10 mg/kg, po measured upto 24 hrs by LC-MS analysis
Assay type: ADME, organism-based
condition_summary: in vivo
assay_endpoint: MRT inf (h)
# value in h; strip the unit string

Return reported MRT inf; argument: OCCN(CCO)c1nccc(-n2cncn2)n1
4.67

----------
Could you please report measured MIC for the items listed next?
System: Escherichia coli
assay_method_text: Antibacterial activity against Escherichia coli ATCC 25922 assessed as bacterial growth inhibition incubated for 24 hrs by broth microdilution method
Assay type: functional
# value in µM; strip the unit string

Return reported MIC; argument: CCc1nccn1-c1nccc(N(CCO)CCO)n1
924

Return reported MIC; argument: CC(C)N(c1nccc(-n2cncn2)n1)C(C)C
1040

Return reported MIC; argument: Cc1cn(-c2nccc(N(CCO)CCO)n2)c(C)n1
924

Return reported MIC; argument: CCN(CCO)c1nccc(-n2cncn2)n1
547

Return reported MIC; argument: Nc1ccc(S(=O)(=O)Nc2ncccn2)cc1
64

Return reported MIC; argument: CCc1nccn1-c1ccnc(N(CCO)CCO)n1
924

Return reported MIC; argument: O=[N+]([O-])c1cn(-c2ccnc(N(CCO)CCO)n2)cn1
870

Return reported MIC; argument: O=C1c2cccc3c(N4CCN(c5nccc(-n6cncn6)n5)CC4)ccc(c23)C(=O)N1C(CO)CO
255

Return reported MIC; argument: CCCc1nccn1-c1ccnc(N(CCO)CCO)n1
879

Return reported MIC; argument: O=c1ccc2c(CN3CCN(c4nccc(-n5cncn5)n4)CC3)cc(O)cc2o1
633

Return reported MIC; argument: CCn1cc(C(=O)O)c(=O)c2cc(F)c(N3CCNCC3)cc21
3

Return reported MIC; argument: Cc1ncc([N+](=O)[O-])n1-c1nccc(N(CCO)CCO)n1
1660

----------
assay_method_text: MRT (0 to infinity) in Kunming mouse at 10 mg/kg, iv measured upto 24 hrs by LC-MS analysis
Type: ADME, organism-based
condition_summary: in vivo
assay_endpoint: MRT inf (h)
# value in h; strip the unit string

Return reported MRT inf; argument: OCCN(CCO)c1nccc(-n2cncn2)n1
3.98

----------
Tested on: Staphylococcus aureus
assay_method_text: Antibacterial activity against Staphylococcus aureus ATCC 25923 assessed as bacterial growth inhibition incubated for 24 hrs by broth microdilution method
Format: functional
The threshold is 800 µM. Values of MIC beneath it are tagged YES; values meeting or exceeding it are tagged NO.

Given the entry O=C(CCl)N1CCN(c2nccc(-n3cncn3)n2)CC1 , would its reported MIC be below 800 µM?
YES

Given the entry CCN(CCO)c1nccc(-n2cncn2)n1 , would its reported MIC be below 800 µM?
NO

Given the entry Cc1cc2ncn(-c3ccnc(N(CCO)CCO)n3)c2cc1C , would its reported MIC be below 800 µM?
YES

Given the entry Cc1cn(-c2nccc(N(CCO)CCO)n2)c(C)n1 , would its reported MIC be below 800 µM?
NO

Given the entry CCN(CC)c1nccc(-n2cncn2)n1 , would its reported MIC be below 800 µM?
YES

Given the entry Cc1nccn1-c1ccnc(N(CCO)CCO)n1 , would its reported MIC be below 800 µM?
NO

Given the entry OCCN(CCO)c1nccc(-n2cnnn2)n1 , would its reported MIC be below 800 µM?
NO

Given the entry CN(CCO)c1nccc(-n2cncn2)n1 , would its reported MIC be below 800 µM?
NO

Given the entry O=C(c1ccccc1)N1CCN(c2nccc(-n3cncn3)n2)CC1 , would its reported MIC be below 800 µM?
YES

Given the entry CCCc1nccn1-c1ccnc(N(CCO)CCO)n1 , would its reported MIC be below 800 µM?
NO

Given the entry CCc1nccn1-c1ccnc(N(CCO)CCO)n1 , would its reported MIC be below 800 µM?
NO

Given the entry Clc1ccc2c3ccccc3n(-c3nccc(-n4cncn4)n3)c2c1 , would its reported MIC be below 800 µM?
YES

Given the entry CC(C)N(c1nccc(-n2cncn2)n1)C(C)C , would its reported MIC be below 800 µM?
YES

Given the entry O=C(CCCCl)N1CCN(c2nccc(-n3cncn3)n2)CC1 , would its reported MIC be below 800 µM?
YES

Given the entry CC(C)c1nccn1-c1nccc(N(CCO)CCO)n1 , would its reported MIC be below 800 µM?
YES

Given the entry OCCN(CCO)c1nccc(-n2cnc3ccccc32)n1 , would its reported MIC be below 800 µM?
YES

Given the entry O=C(C(Cl)Cl)N1CCN(c2nccc(-n3cncn3)n2)CC1 , would its reported MIC be below 800 µM?
YES

Given the entry Cc1ncc([N+](=O)[O-])n1-c1ccnc(N(CCO)CCO)n1 , would its reported MIC be below 800 µM?
NO

Given the entry Cc1nc2ccccc2n1-c1ccnc(N(CCO)CCO)n1 , would its reported MIC be below 800 µM?
YES

Given the entry Cc1ncc([N+](=O)[O-])n1-c1nccc(N(CCO)CCO)n1 , would its reported MIC be below 800 µM?
NO

Given the entry OCCN(CCO)c1nccc(-n2cnc3cc(Br)ccc32)n1 , would its reported MIC be below 800 µM?
YES

Cited source for all entries: ChEMBL document CHEMBL5380831
